Target: TEAD1 (Homo sapiens)
Sequence (P28347 whole entry, species assumed): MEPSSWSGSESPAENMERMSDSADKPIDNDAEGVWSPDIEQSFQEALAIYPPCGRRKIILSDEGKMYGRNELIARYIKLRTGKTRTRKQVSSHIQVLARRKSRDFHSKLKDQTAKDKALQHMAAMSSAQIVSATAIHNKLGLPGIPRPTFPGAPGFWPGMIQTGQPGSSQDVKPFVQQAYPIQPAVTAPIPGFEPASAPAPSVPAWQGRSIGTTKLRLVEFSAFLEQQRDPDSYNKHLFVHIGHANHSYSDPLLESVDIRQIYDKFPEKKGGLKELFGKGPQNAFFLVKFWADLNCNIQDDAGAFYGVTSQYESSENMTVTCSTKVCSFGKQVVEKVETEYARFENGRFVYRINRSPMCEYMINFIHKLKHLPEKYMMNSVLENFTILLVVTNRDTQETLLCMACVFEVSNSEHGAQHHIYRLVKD
Assay: Lipid HTRF (TR-FRET lipid pocket probe competition), 30 min pre-incubation, TEAD1
Format: binding
Conditions: His-tagged TEAD1, 30 minutes pre-incubation with compound at room temperature; read-out: Lipid HTRF TEAD1 IC50
Protocol: His-tagged TEAD proteins are pre-incubated with TEAD project compounds for 30 minutes at room temperature. Biotinylated lipid pocket probes are then added to the TEAD/Compound mixture and incubated for 60 minutes at room temperature. The lipid pocket probe competes with the test compound for the TEAD lipid pocket until equilibrium is reached. […] The potency of compounds as TEAD lipid pocket binders is determined by IC50 value generated using a non-linear 4 parameter curve fit.
pIC50: −log10 of the molar value.
Please note: condition met applies when pIC50 is 6 or greater, and condition not met applies otherwise.

Compound | Class Assignment
N#Cc1c(NC(=O)[C@@H]2CO2)cc(-c2ccc(OC(F)(F)F)cc2)c2c1CCO2 | condition met

Challenge: Reported pIC50 at or above 6? `C=CC(=O)N(CCO)c1cc(/C=C/[C@H]2CC[C@H](C(F)(F)F)CC2)c(OC)cn1`
Response given: condition not met

Challenge: Consider next the compound `C=CC(=O)Nc1cc(/C=C/[C@H]2CC[C@H](C(F)(F)F)CC2)c(OC)nn1` in the same way.
Response given: condition met

Challenge: Same lookup for CC(C)c1ccc(-c2cc(NC(=O)C3(C)CO3)c(C#N)c3c2OCC3)cc1 (single isomer, unassigned) [Enantiomer A from Example 43] , please.
Response given: condition not met

Challenge: Follow-up entry: C=CC(=O)Nc1cc(/C=C/C2CCC(F)(F)CC2)c2c(c1)CC(C)O2 (single isomer, unassigned) [Enantiomer D from Example 35]
Response given: condition met

Challenge: Then what about the compound `N#Cc1c(NC(=O)[C@H]2CO2)cc(-c2ccc(OC(F)(F)F)cc2)c2c1CCO2` ?
Response given: condition not met

Challenge: Record: `C=CC(=O)Nc1cnc(OC)c(/C=C/C2CCC(F)(F)CC2)c1`
Response given: condition met
